This listing pairs compounds with measured growth.
tested on: 786-0 renal; test: NCI-60 one-dose screen, 48 h (100 = growth as untreated, 0 = no growth, -100 = all killed); conditions: 10 µM unless noted
Compounds without any hit were thinned out: in the full panel of roughly 83,000, 20% have a hit. The source made the active and inactive calls. How the source made its calls: active means growth percent below 10; inactive means the rest.

Previously resolved entries follow.
>>> value("CN1CCN(C(=O)OCc2nc3c(N4CCOCC4)nc(Cl)nc3n2C)CC1")
"-95.5% (active)"
>>> value("CCN(c1cc(-c2ccc(CN3CCC(/C=C/S(=O)(=O)c4ccccc4)CC3)cc2)cc(C(=O)NCc2c(C)cc(C)[nH]c2=O)c1C)C1CCOCC1")
"71.1% (inactive)"
>>> value("COc1ccc(-c2cc(=O)c3c(O)cc(O)cc3o2)cc1")
"107% (inactive)"
>>> value("COC(=O)c1c2c(c(C)[n+]([O-])c1C)C(=O)C(NCCN1CCOCC1)=CC2=O")
"89.9% (inactive)"
>>> value("O=C1c2cc3c(cc2-c2c1c1ccc(Cl)cc1c(=O)n2CCCn1ccnc1)OCO3")
"-40.9% (active)"

Provide 786-0 renal growth reading for COc1ccc(CN2CCc3c(Cl)nc(N)nc3C2=O)c(OC)c1 .
19.6% [100 µM] (inactive)

Report growth from 786-0 renal testing of CCOC(=O)C(=CCC(C)C)C(=O)OCC
95.9% (inactive)

Write down measured growth (786-0 renal) for this compound. CCOC(=O)C(=Cc1ccc(C#N)cc1)C(=O)OCC
0.647% (active)

State growth (786-0 renal) of Clc1ccc(CNc2ccc3nc(CCC4CCCCC4)[nH]c3c2)cc1 .
58.9% (inactive)

Under 786-0 renal: report growth of N=C(N)c1ccc(-c2ccc(-c3ccc(Cl)c(Cl)c3)s2)cc1 .
-3.47% (active)

###

system: A549/ATCC NSCLC; test: NCI-60 one-dose screen, 48 h; details: 10 µM unless noted
This is part of a sample that, as a whole, favours compounds with a hit. Of some 83,000 tested, about 20% had one in any assay. The source made the active and inactive calls. The calls were made as follows: active = growth percent below 10; inactive = the rest.
Assign a class; possible classes are active, inactive

Entry CCNC(=O)Oc1ccc(/C(=C(/C)Cc2ccc(OC)cc2)c2ccc(OCCN(CC)CC)cc2)cc1 : call = ?
inactive

Recorded call for O=C(N/N=C/c1ccc(O)cc1O)c1cccc(Nc2ccnc(C(F)(F)F)c2)c1 ?
inactive

Would you mind telling me which call this test gave CCOC(=O)c1cc2c(n1Cc1cc(OC)cc(OC)c1Br)-c1nc(NC(C)=O)sc1CCC2 ?
inactive

Record request — test call for Cc1ccc(-c2nc3nc(-c4ccccc4)nc(N4CCN(S(=O)(=O)c5ccccc5)CC4)c3o2)cc1
inactive

Outcome? N#C/C(=C\c1ccccc1Cl)c1cc2ccccc2[nH]1
inactive

State the result this test recorded for Cc1ccc(-c2nc(SCC(=O)c3ccc(C#N)cc3)[nH]c(=O)c2C#N)cc1 .
inactive

Each molecule tested received a call. Report the one for CONC1=Nc2cc(NC(N)=NCc3ccccc3)c(N(C)C3CCCCC3)cc2OC1 .
inactive

In this assay, the call recorded for COc1cc(/C=C(/c2ccccc2)[N+](=O)[O-])c(OC)c2c1OCO2 was what?
active

Which outcome was entered for the molecule COc1ccc(/C=C2/C(=O)N=C3N2NC(c2ccccc2)=CN3c2ccccc2)cc1 in this test?
inactive

Which outcome was entered for the molecule N#Cc1c(-c2cccc(F)c2)cc(-c2cccnc2)[nH]c1=O in this test?
inactive
